Assay: adipocyte viability effects, profiling panel, cell-based, 3T3-L1 adipocytes, calcein-AM fluorescence, 48 h, basal (AID 1163); further: test concentration not given here
Conditions: 3T3-L1 adipocytes viability, higher = more signal
# z-score annotations
Response field accepts a number only; no unit should be typed.

Before answering, review these 3 worked examples.
INSERT INTO measurements (compound, observed) VALUES
  ('COC(=O)[C@H](C)NC(=O)CCC1CC(OC(=O)NCCc2ccc(F)cc2)CC2(CCCC(COC(=O)NCCCN3CCCC3=O)O2)O1 (stereo partly specified)', 1.06),
  ('CCN1C(=O)[C@H]2[C@H]3[C@H](O)[C@H](O)CC(=NNC(=O)OCc4ccc(OC)cc4)[C@H]3CC[C@H]2C1=O', -0.402),
  ('CCOC(=O)CCN1C(=O)[C@H]2[C@H]3[C@H](O)[C@H](O)CC(=NNC(=O)OCC)[C@@H]3CC[C@H]2C1=O', -0.0796);

Q: Recall and state the measured z-score for `O=C(NN=C1C[C@@H](O)[C@@H](O)[C@@H]2[C@@H]3C(=O)N(Cc4ccc5c(c4)OCO5)C(=O)[C@@H]3CC[C@H]12)OCc1ccccc1` .
A: -0.263

Q: Recall and state the measured z-score for `CCCNC(=O)OC[C@H]1O[C@H](CCON=C(C)CCN2CCc3nc(-c4ccccc4)c(-c4ccccc4)cc3C2)C=C[C@@H]1Oc1ccc(OC)cc1` .
A: 0.723

Q: Recall and state the measured z-score for `C#CCCCON=C1C[C@@H](O)[C@@H](O)[C@@H]2[C@@H]3C(=O)N(C4CCCCC4)C(=O)[C@@H]3CC[C@H]12` .
A: -0.277
